test system: BT549; test: NCI human cell line panel cytotoxicity; type: cell-based; settings: BT-549, Breast, read-out: IC50 nM
Measured parameter: IC50
Respond with a number, then the unit of measure.

Find the recorded IC50 belonging to CN(C)CCNc1ccc(NCCN(CCCl)CCCl)c2c1C(=O)c1c(O)ccc(O)c1C2=O [Compound IV] and report it.
2040 nM

====

test system: U251; assay: NCI human cell line panel cytotoxicity; type: cell-based; settings: U-251, CNS, read-out: IC50
Measured parameter: pIC50
Note: pIC50 values are expressed as the negative base-10 logarithm of concentration in M.

Find the recorded pIC50 belonging to CN(C)CCNc1ccc(NCCN(CCCl)CCCl)c2c1C(=O)c1c(O)ccc(O)c1C2=O [Compound IV] and report it.
7.72

====

system: HS 578T; assay: NCI human cell line panel cytotoxicity; type: cell-based; details: Breast, read-out: IC50
Measured parameter: pIC50
Note: pIC50 values are expressed as the negative base-10 logarithm of concentration in M.

// fetch HS 578T pIC50 for CN(C)CCNc1ccc(NCCN(CCCl)CCCl)c2c1C(=O)c1c(O)ccc(O)c1C2=O
6.28

====

tested on: MDA-MB-231/ATCC; experiment: NCI human cell line panel cytotoxicity; type: cell-based; details: Breast, read-out: IC50
Measured parameter: IC50 (nM)
Please state the figure in nM; there is no need to write the unit.

Find the recorded IC50 belonging to CN(C)CCNc1ccc(NCCN(CCCl)CCCl)c2c1C(=O)c1c(O)ccc(O)c1C2=O and report it.
100

====

tested on: SF 268; assay: NCI human cell line panel cytotoxicity; type: cell-based; settings: CNS, read-out: IC50 nM
Measured parameter: IC50

Find the recorded IC50 belonging to CN(C)CCNc1ccc(NCCN(CCCl)CCCl)c2c1C(=O)c1c(O)ccc(O)c1C2=O [Compound IV] and report it.
< 10 nM

====

Tested on: SK MEL 5
Assay: NCI human cell line panel cytotoxicity
Format: cell-based
Details: Melanoma, read-out: IC50
Method: To identify the activity of the compound of formula IV in additional cell lines, an NCI human cell line panel was screened for sensitivity to the compound. Cytotoxicity was evaluated for chloroethylaminoanthraquinone compounds synthesized as described in EXAMPLE 1, using an in vitro cell based assay as described in Pors et al., Mol. Cancer Ther., 2:607-610 (2003). […] Growth inhibition was determined, and was expressed as the concentration (nM) required to inhibit cell growth by 50% (IG50). […]
Measured parameter: IC50 (µM)
Please state the figure in µM; there is no need to write the unit.

// fetch SK MEL 5 IC50 for CN(C)CCNc1ccc(NCCN(CCCl)CCCl)c2c1C(=O)c1c(O)ccc(O)c1C2=O
0.0708

====

system: SF 539; assay: NCI human cell line panel cytotoxicity; assay type: cell-based; details: CNS, read-out: IC50 nM
Measured parameter: IC50

Find the recorded IC50 belonging to CN(C)CCNc1ccc(NCCN(CCCl)CCCl)c2c1C(=O)c1c(O)ccc(O)c1C2=O and report it.
< 10 nM

====

test system: LOX IMVI; assay: NCI human cell line panel cytotoxicity; format: cell-based; details: Melanoma, read-out: IC50
Measured parameter: IC50

// fetch LOX IMVI IC50 for CN(C)CCNc1ccc(NCCN(CCCl)CCCl)c2c1C(=O)c1c(O)ccc(O)c1C2=O
< 10 nM

All figures here come from patent US20070208085A1.
